# System: TESK1
# CONDITION_CONTEXT: concentration: 1 μM,replicates: in singlicate; n = 1
The following compounds are listed with their measured %Inh values.

>  <COMPOUND>
CSc1nccc(-c2c(-c3ccc(F)cc3)ncn2CCCN2CCOCC2)n1.Cl

>  <TESTED_SYSTEM>
TESK1

>  <%Inh>
0%

$$$$
>  <COMPOUND>
COC(=O)c1cccc(NC(=O)NC2CCN(c3ccnc(Nc4cc(OC)c(OC)c(OC)c4)n3)C2)c1 (stereo not shown)

>  <TESTED_SYSTEM>
TESK1

>  <%Inh>
19%

$$$$
>  <COMPOUND>
NC(=O)Nc1sc(-c2ccc(F)cc2)cc1C(N)=O

>  <TESTED_SYSTEM>
TESK1

>  <%Inh>
24%

$$$$
>  <COMPOUND>
Cn1cc(-c2cccc3c(N)c(C(N)=O)nnc23)cn1

>  <TESTED_SYSTEM>
TESK1

>  <%Inh>
0%

$$$$
>  <COMPOUND>
CCCC(=O)Nc1n[nH]c2ncccc12

>  <TESTED_SYSTEM>
TESK1

>  <%Inh>
5%

$$$$
>  <COMPOUND>
COC(=O)Nc1nc2cc(Oc3ccc(NC(=O)Nc4cc(C(F)(F)F)ccc4Cl)cc3)ccc2[nH]1.Cl

>  <TESTED_SYSTEM>
TESK1

>  <%Inh>
7%

$$$$
>  <COMPOUND>
Nc1nccc(-c2ccc3c(N)n[nH]c3c2)n1

>  <TESTED_SYSTEM>
TESK1;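 further: KINOMEscan kinase panel screen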

>  <%Inh>
2%

$$$$
